test: pH-Solubility profile (aqueous solubility); assay type: physicochemical; conditions: aqueous solution, aqueous buffer; at solution pH 6.5 and above
attributeMeasured: solubility

In [3]: df
Out[3]:
                                   molecule  testresult
0  CN1Cc2cc(-c3ccc(N)nn3)ccc2[C@H](c2ccc3ccccc3c2)C1 [Compound 2]   ≤ 1 µg/mL

----------
experiment: pKa; type: physicochemical; conditions: first of two printed pKa values
attributeMeasured: pKa

In [3]: df
Out[3]:
                                   molecule  testresult
0  CN1Cc2cc(-c3ccc(N)nn3)ccc2[C@H](c2ccc3ccccc3c2)C1 [Form N-1]         4.9

----------
assay: pKa; format: physicochemical; conditions: second of two printed pKa values
attributeMeasured: pKa

In [3]: df
Out[3]:
                                   compound  testresult
0  CN1Cc2cc(-c3ccc(N)nn3)ccc2[C@H](c2ccc3ccccc3c2)C1 [Form N-1]         7.8

----------
assay: pH-Solubility profile (aqueous solubility); assay type: physicochemical; conditions: aqueous solution, aqueous buffer; at pH 2.0
attributeMeasured: solubility

>>> print(df.to_string())
                          chemicalstructure  attributemeasured  testresult
0  CN1Cc2cc(-c3ccc(N)nn3)ccc2[C@H](c2ccc3ccccc3c2)C1         solubility  15.6 mg/mL
